# Procedure Details: UGTs/CYPs dual-activity mouse liver microsomal stability
# Assay type: in vitro ADME
# Recorded Conditions: CD-1; mouse liver microsomes; 0.693/k; read-out: in vitro half-life

[
  {
    "Smiles Code": "O=C(NCC12C[C@H]3C[C@@H](C1)C[C@@H](C2)C3)Nc1ccc2c(ccn2CCc2ccc(F)cc2)c1",
    "half-life at 5 µM [min]": 16
  },
  {
    "Smiles Code": "O=C(Nc1ccc2c(c1)CCN2Cc1ccc(F)cc1)NC12C[C@H]3C[C@@H](C1)C[C@@H](C2)C3",
    "half-life at 5 µM [min]": 20.4
  },
  {
    "Smiles Code": "O=C(NCC12C[C@H]3C[C@@H](C1)C[C@@H](C2)C3)Nc1ccc2c(ccn2Cc2ccc(F)cc2)c1",
    "half-life at 5 µM [min]": 11.9
  }
]

====

# Procedure Details: UGTs/CYPs dual-activity mouse liver microsomal stability
# Assay type: in vitro ADME
# Recorded Conditions: CD-1; mouse liver microsomes; 0.693/k; read-out: in vitro half-life
Listed here are molecules together with their documented half-life at 1 h, 5 µM.
Outcome Measure: half-life at 1 h, 5 µM (min)

[
  {
    "Smiles Code": "O=C(NCC12C[C@H]3C[C@@H](C1)C[C@@H](C2)C3)Nc1ccc2c(ccn2C(=O)c2ccc(F)cc2)c1",
    "Outcome Measure": "half-life at 1 h, 5 µM",
    "Unit Abbreviation": "min",
    "Numeric Result": 11.8
  },
  {
    "Smiles Code": "CC(C)c1ccc(Cn2ccc3cc(NC(=O)NCC45C[C@H]6C[C@@H](C4)C[C@@H](C5)C6)ccc32)cc1",
    "Outcome Measure": "half-life at 1 h, 5 µM",
    "Unit Abbreviation": "min",
    "Numeric Result": 62.9
  }
]

====

# Measurement Target: UniProtKB P09917
# Sequence (P09917 whole entry): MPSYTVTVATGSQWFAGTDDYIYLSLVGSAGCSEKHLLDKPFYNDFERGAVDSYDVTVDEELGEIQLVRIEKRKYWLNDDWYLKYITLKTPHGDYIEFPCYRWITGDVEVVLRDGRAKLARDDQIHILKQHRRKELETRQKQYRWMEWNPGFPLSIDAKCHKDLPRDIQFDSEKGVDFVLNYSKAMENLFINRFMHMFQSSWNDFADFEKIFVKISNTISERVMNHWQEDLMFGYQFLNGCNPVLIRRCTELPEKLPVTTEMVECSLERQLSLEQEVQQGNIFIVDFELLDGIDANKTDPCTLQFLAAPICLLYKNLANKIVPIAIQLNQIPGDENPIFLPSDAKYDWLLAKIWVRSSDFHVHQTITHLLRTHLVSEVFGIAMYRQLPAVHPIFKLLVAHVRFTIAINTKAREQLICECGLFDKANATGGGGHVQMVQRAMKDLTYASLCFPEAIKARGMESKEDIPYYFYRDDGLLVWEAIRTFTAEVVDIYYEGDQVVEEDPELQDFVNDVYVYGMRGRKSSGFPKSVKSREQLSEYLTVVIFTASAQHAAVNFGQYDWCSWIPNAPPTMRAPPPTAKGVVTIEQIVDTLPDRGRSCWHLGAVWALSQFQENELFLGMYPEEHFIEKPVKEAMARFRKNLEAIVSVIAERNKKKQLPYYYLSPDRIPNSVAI
# Procedure Details: 5-LOX product formation in human activated PMNL (A23187)
# Format: cell-based
# Parameters: Freshly isolated PMNL (5 × 10^6) suspended in PBS pH 7.4 with 1 mg/mL glucose were preincubated with the test compounds; endogenous in cells; host or cells: human PMNL from donor blood; dose or concentration left out as unconfirmed
# Recorded Conditions: PMNL; read-out: 5-LO residual activity in PMNL (%)
# Source text: Human PMNL were freshly isolated from leukocyte concentrates that were obtained from the Institute for Transfusion Medicine of the University Hospital Jena (Germany). […] These volunteers regularly donated blood (every 8–12 weeks) and were physically inspected by a clinician. […] Major 5-LOX products (all-trans isomers of LTB and 5-HETE, and additionally LTB4) were extracted and analyzed by RP-HPLC as described for the determination of cell-free 5-LOX activity.
Listed here are molecules together with their documented remaining activity.
Outcome Measure: remaining activity (%)

[
  {
    "Molecule": "O=C(NCC12C[C@H]3C[C@@H](C1)C[C@@H](C2)C3)Nc1ccc2c(ccn2-c2ccc(F)cc2)c1 [Compound 45]",
    "Numeric Result": 80.9
  },
  {
    "Molecule": "O=C(Nc1ccc2c(c1)CCN2Cc1ccc(F)cc1)C12C[C@H]3C[C@@H](C1)C[C@@H](C2)C3 [Compound 3]",
    "Numeric Result": 53.2
  },
  {
    "Molecule": "NCCCn1ccc2cc(NC(=O)NCC34CC5CC(CC(C5)C3)C4)ccc21 [Compound 39]",
    "Numeric Result": 51.8
  },
  {
    "Molecule": "O=C(NCC12C[C@H]3C[C@@H](C1)C[C@@H](C2)C3)Nc1ccc2c(c1)CCN2Cc1ccc(F)cc1 [Compound 5]",
    "Numeric Result": 73.7
  },
  {
    "Molecule": "CC(C)c1ccc(Cn2ccc3cc(NC(=O)NCC45C[C@H]6C[C@@H](C4)C[C@@H](C5)C6)ccc32)cc1 [Compound 28]",
    "Numeric Result": 93.6
  }
]
